STUDY CONDITIONS: in chloroform, 313.15 K
MEASUREMENT NAME: solubility (mole fraction)
Respond using a number only.

Answered cases to consult:
>  <ENTRY SMILES>
COc1cc(-c2cc(-c3ccc(Cl)cc3)[nH]c(=O)c2C#N)ccc1O

>  <solubility (mole fraction)>
0.00135

$$$$
>  <ENTRY SMILES>
COc1ccc(-c2cc(-c3ccc(O)c(OC)c3)c(C#N)c(=O)[nH]2)cc1

>  <solubility (mole fraction)>
0.00124

$$$$

Ask | // query solubility (mole fraction) value for entry COc1cc(-c2cc(-c3ccc(O)cc3)[nH]c(=O)c2C#N)ccc1O
Reply | 0.00144

Ask | // query solubility (mole fraction) value for entry COc1cc(-c2cc(-c3ccc(F)cc3)[nH]c(=O)c2C#N)ccc1O
Reply | 0.00151

Ask | // query solubility (mole fraction) value for entry COc1cc(-c2cc(-c3ccc(Br)cc3)[nH]c(=O)c2C#N)ccc1O
Reply | 0.00128
